Task for the reader: assign each of the following molecules its reported normalized growth.
Experiment: chemical genetic growth profiling, strain panel (AID 1159580);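 note: tested at 20 µM; growth read once vehicle control cultures reached saturation at 30 °C; 1 = growth at the plate median or of vehicle wells; lower values mean less growth of the strain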
Details: S. cerevisiae deletion strains, growth OD, locus YDR226W, strain ADK1, active compounds read low
Screen size: about 5,500 compounds; about 2,000 (36%) were called active. Another 18% or so got no clear call; they are omitted. The list shows a part of the results.

# count of solved cases: 3
Request: Identify measured normalized growth corresponding to `NC(=Nc1ccc(F)cc1)SCc1c(Cl)cccc1Cl`
Result: 0.985 (inactive)

Request: Identify measured normalized growth corresponding to `O=C(c1ccccc1)c1cc(Cl)ccc1NC(=S)Nc1ccc(F)cc1`
Result: 0.993 (inactive)

Request: Identify measured normalized growth corresponding to `COc1ccc(C(=O)CSC2=NCCc3ccccc32)cc1`
Result: 0.971 (inactive)

Lab note: each molecule below needs its normalized growth filled in.
1. FC(F)(F)c1cccc(NC(=S)Nc2csc(C(F)(F)F)c2-c2ccccc2)c1
2. O=C(NCCSCc1ccco1)Nc1cc(Cl)cc(Cl)c1
3. CCOC(=O)/C(=N/Nc1c(Cl)cccc1Cl)c1csc(N)n1
4. Cc1nn(Cc2ccc(C(=O)Sc3ccc(C(F)(F)F)cn3)o2)c(C)c1Br
5. O=C(NCCSCc1cccc(C(F)(F)F)c1)c1ccc(Cl)cc1

Result:
["0.988 (inactive)", "0.965 (inactive)", "0.973 (inactive)", "0.955 (inactive)", "0.973 (inactive)"]

---

Assay: chemical genetic growth profiling, strain panel (AID 1159580)
Conditions: S. cerevisiae deletion strains, growth OD, locus YER016W, strain bim1, active compounds read low
The campaign covered roughly 5,500 compounds. About 2,000 (36%) were called active. Roughly 18% stayed inconclusive and do not appear here. Some of the results follow.
property: normalized growth
One number for each entry.

Lab note: each compound below needs its normalized growth filled in.
1. Oc1c(I)cc(I)c2cccnc12
2. CC(=O)O[C@H]1C[C@@H](OC(C)=O)C(C)(C)C2C[C@@H](OC(C)=O)[C@@]3(C)C4=CC(=O)O[C@@H](c5ccoc5)[C@]4(C)CCC3[C@]21C (stereo partly specified)
3. C=C(C)[C@H]1CC=C(C(=O)O)CC1

Result:
[0.0805, 0.991, 0.992]

Lab note: each compound below needs its normalized growth filled in.
1. C[n+]1cccc(C(=O)[O-])c1
2. COc1cc(OC)c2c(=O)c(-c3ccccc3)c(C)oc2c1OC
3. CC(=O)Oc1ccc(Cl)c2cccnc12

Result:
1. 0.967
2. 0.986
3. 0.0578

---

Assay: chemical genetic growth profiling, strain panel (AID 1159580)
Conditions: S. cerevisiae deletion strains, growth OD, locus YLR258W, strain gsy2, active compounds read low
About 2,000 (36%) of roughly 5,500 compounds were called active. Inconclusive results (about 18%) are left out. The list shows a part of the results.
property: normalized growth
Give bare numbers.

Request: Identify measured normalized growth corresponding to `Nc1ncnc2c1ncn2[C@@H]1O[C@H](CO)[C@@H](O)[C@H]1O`
Result: 0.975

Request: Identify measured normalized growth corresponding to `CC(=O)NCCCS(=O)(=O)O`
Result: 1.01

Request: Identify measured normalized growth corresponding to `Nc1ncn([C@@H]2O[C@H](CO)[C@@H](O)[C@H]2O)c(=O)n1`
Result: 0.992

Request: Identify measured normalized growth corresponding to Nc1ncnc2c1ncn2C1O[C@H](COP(=O)(O)O)[C@@H](O)[C@H]1O (stereo partly specified)
Result: 0.987

Lab note: each compound below needs its normalized growth filled in.
1. CC(C)(C)NC[C@@H](O)COc1nsnc1N1CCOCC1
2. O=c1[nH]c(=O)n(C2C[C@@H](O)[C@@H](CO)O2)cc1F (stereo partly specified)

Result:
1.01
1.01

---

Experiment: chemical genetic growth profiling, strain panel (AID 1159580);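 note: tested at 20 µM; growth read once vehicle control cultures reached saturation at 30 °C; 1 = growth at the plate median or of vehicle wells; lower values mean less growth of the strain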
Conditions: S. cerevisiae deletion strains, growth OD, locus YAL030W, strain snc1
Screen size: about 5,500 compounds; about 2,000 (36%) were called active. Not shown: some 18% with an inconclusive outcome. Rule as the data show it: active = normalized growth mostly below about 0.91 (no sharp cut-off); inconclusive = no clear call, values can overlap the other calls; inactive = mostly above about 0.92. This is one part of the list.
Answer with one of the outcomes TRUE (active), FALSE (inactive)

Use the examples below as a reference point.
Request: Status in this test for `CNC[C@@H](O)c1ccc(O)c(O)c1` ?
Result: FALSE

Request: Status in this test for O=C1CCCC2C3CC(CN12)[C@@H]1CCCCN1C3 (stereo partly drawn) ?
Result: FALSE

Request: Status in this test for NCC(O)c1ccc(O)cc1 (stereo not drawn) ?
Result: FALSE

***
Request: Status in this test for C1CCN2CC3CC(CN4CCCCC34)C2C1 (stereo not drawn) ?
Result: FALSE

Request: Status in this test for `C1CNCCN1` ?
Result: FALSE

Request: Status in this test for `CN(C)CCOc1ccc(/C(=C(/CCCl)c2ccccc2)c2ccccc2)cc1` ?
Result: TRUE

Request: Status in this test for `CC/C(=C(\c1ccccc1)c1ccc(OCCN(C)C)cc1)c1ccccc1` ?
Result: TRUE

Request: Status in this test for `NC[C@H](O)c1ccc(O)c(O)c1` ?
Result: FALSE

Request: Status in this test for `CCN(CC)CCOc1ccc(/C(=C(\Cl)c2ccccc2)c2ccccc2)cc1` ?
Result: TRUE

Request: Status in this test for `CCN(CC)CCOc1ccc2c(c1)C(=O)c1cc(OCCN(CC)CC)ccc1-2` ?
Result: FALSE

Request: Status in this test for CC(C)NCC(O)c1ccc(O)c(O)c1 (stereo not drawn) ?
Result: FALSE

Request: Status in this test for `COc1ccc(C(Cl)=C(c2ccc(OC)cc2)c2ccc(OC)cc2)cc1` ?
Result: FALSE

Request: Status in this test for `C1CCN2C[C@@H]3C[C@H](CN4CCCC[C@@H]34)[C@H]2C1` ?
Result: FALSE

---

Assay: chemical genetic growth profiling, strain panel (AID 1159580);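 note: tested at 20 µM; growth read once vehicle control cultures reached saturation at 30 °C; 1 = growth at the plate median or of vehicle wells; lower values mean less growth of the strain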
Details: S. cerevisiae deletion strains, growth OD, locus YJL115W, strain asf1
Among all 5,500 compounds or so, about 2,000 (36%) were called active. Another 18% or so got no clear call; they are omitted. Cut-off read from the data, not from the text of the source: active = normalized growth mostly below about 0.91 (no sharp cut-off); inconclusive = no clear call, values can overlap the other calls; inactive = mostly above about 0.92. Some of the results follow.
Answer with one of the outcomes t (active), f (inactive)

Request: Status in this test for CCCC1O[C@@H]2CC3C4CCC5=CC(=O)C=CC5(C)C4[C@@H](O)CC3(C)[C@]2(C(=O)CO)O1 (some centres not stated) ?
Result: f

Request: Status in this test for `Cc1ccc(/C(=C\CN2CCCC2)c2ccccn2)cc1` ?
Result: f

Request: Status in this test for `Cc1c(Nc2ncccc2C(=O)O)cccc1C(F)(F)F` ?
Result: f

Request: Status in this test for `O=C(O)CF` ?
Result: f

***
Request: Status in this test for `Nc1ccc(S(=O)(=O)Nc2ccccn2)cc1` ?
Result: f

Request: Status in this test for `OC[C@@H]1CCCN2CCCC[C@H]12` ?
Result: f

Request: Status in this test for `O=C(O)c1ccccc1Nc1ccccc1` ?
Result: t

---

Assay: chemical genetic growth profiling, strain panel (AID 1159580);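 note: tested at 20 µM; growth read once vehicle control cultures reached saturation at 30 °C; 1 = growth at the plate median or of vehicle wells; lower values mean less growth of the strain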
Conditions: S. cerevisiae deletion strains, growth OD, locus YOR061W, strain CKA2, active compounds read low
The campaign covered roughly 5,500 compounds. About 2,000 (36%) were called active. Inconclusive results (about 18%) are left out. The list shows a part of the results.
Task for the reader: assign each of the following compounds its reported normalized growth.
One number for each entry.

Request: Identify measured normalized growth corresponding to CC1(C)C(=O)C=CC2(C)C3CCC4(C)C(c5ccoc5)CC5OC54C3C(O)CC12 (centres undefined)
Result: 0.979

Request: Identify measured normalized growth corresponding to CC1(C)C(O)CC(O)C2(C)C1CC(O)C1(C)C2CCC2(C)C(c3ccoc3)CC3OC321 (centres undefined)
Result: 1

Request: Identify measured normalized growth corresponding to `O=C(Nc1ccc(C(F)(F)F)cc1)N1CCN(c2ccnc3cc(Cl)ccc23)CC1`
Result: 1.01

Request: Identify measured normalized growth corresponding to `CCN(CC)CCOc1ccc(/C(=C(\Cl)c2ccccc2)c2ccccc2)cc1`
Result: 0.0462

Request: Identify measured normalized growth corresponding to CC1(C)C(=O)C=C[C@@]2(C)C1=C(O)C(=O)[C@]1(C)C2CC[C@@]2(C)[C@H](c3ccoc3)C[C@H]3O[C@]321 (some centres undefined)
Result: 0.847

Request: Identify measured normalized growth corresponding to `C[C@H](N)[C@H](O)c1ccc(O)c(O)c1`
Result: 0.996

Request: Identify measured normalized growth corresponding to `OC[C@@H](O)[C@@H](O[C@@H]1O[C@H](CO)[C@@H](O)[C@H](O)[C@H]1O)[C@H](O)[C@@H](O)CO`
Result: 1.02

Request: Identify measured normalized growth corresponding to `O=C(CCCCCCCCCCCCC1CCCC1)Nc1ccc(S(=O)(=O)c2ccc(NC(=O)CCCCCCCCCCCCC3CCCC3)cc2)cc1`
Result: 1.02

Request: Identify measured normalized growth corresponding to `N[C@@H](Cc1ccc(O)c(O)c1)C(=O)O`
Result: 0.992

Request: Identify measured normalized growth corresponding to `O=C(O[C@@H]1Cc2c(O)cc(O)cc2O[C@@H]1c1cc(O)c(O)c(O)c1-c1c([C@H]2Oc3cc(O)cc(O)c3C[C@H]2O)cc(O)c(O)c1O)c1cc(O)c(O)c(O)c1`
Result: 0.163

Lab note: each compound below needs its normalized growth filled in.
1. OC(CNCc1ccc(Cl)cc1)CO/N=C\C1=C(Cl)c2cc(Cl)ccc2OC1 (centres undefined)
2. COc1cc(C(=O)NCc2ccc(OCCN(C)C)cc2)cc(OC)c1OC
3. CC(C)c1ccc(N2C=Nc3ccc(C(C)C)cc3C2)cc1
4. Oc1c(Br)cc(Br)c2cccnc12
5. COC(=O)C[C@H]1C(C)(C)C(=O)[C@@H]2CC3=C4CC(=O)O[C@@H](c5ccoc5)[C@]4(C)CCC3[C@@]1(C)C2=O (some centres undefined)

Result:
1. 0.969
2. 0.962
3. 0.999
4. 0.048
5. 1

This collection of values is drawn from PubChem BioAssay AID1159580.
